Source: patent US20240043542A1

- tested system: T1, mouse B7-H4 (recombinant, BLI) (mouse, UniProt Q7TSP5 29-256, limits assumed)
- T1 construct: also called murine B7-H4
- T1 sequence: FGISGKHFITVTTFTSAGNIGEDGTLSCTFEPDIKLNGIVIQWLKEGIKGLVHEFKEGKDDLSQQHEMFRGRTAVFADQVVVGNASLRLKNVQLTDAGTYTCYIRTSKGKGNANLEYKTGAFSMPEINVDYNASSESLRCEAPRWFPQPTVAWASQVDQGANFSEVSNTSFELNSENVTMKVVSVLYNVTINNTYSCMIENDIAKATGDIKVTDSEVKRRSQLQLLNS
- assay details: BLI, antigen on Protein A tips;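 also: Anti-B7-H4 antibodies assessed for affinity toward the B7-H4 extracellular domain using biolayer interferometry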
Overview of recorded koff for various binders
Give your result in s⁻¹ as a bare value.

B7-H4 antibody 20496 (antibody, human IgG1, kappa, V domains shown, human IgG1/kappa) VH: QLQLQESGPGLVKPSETLSLTCTVSGGSISSSVYYWSWIRQPPGKGLEWIGSILVSGSTYYNPSLKSRVTISVDTSKNQFSLKLSSVTAADTAVYYCARAVSFLDVWGQGTMVIVSS VL: DIQMTQSPSSLSASVGDRVTITCRASQSISSYLNWYQQKPGKAPKLLIYGASSLQSGVPSRFSGSGSGTDFTLTISSLQPEDFATYYCQQSYDPPWTFGGGTKVEIKR ... 0.0171
B7-H4 antibody 20516 (antibody, human IgG1, kappa, V domains shown, human IgG1/kappa) VH: QVQLQESGPGLVKPSETLSLTCTVSGGSIISYYWGWIRQPPGKGLEWIGYIYSSGSTSYNPSLKSRVTISVDTSKNQFSLKLSSVTAADTAVYYCARGSGLYAAPDYGLDVWGQGTTVTVSS VL: DIQMTQSPSTLSASVGDRVTITCRASQSISSWLAWYQQKPGKAPKLLIYKASSLESGVPSRFSGSGSGTEFTLTISSLQPDDFATYYCQQDNSFPFTFGGGTKVEIKR ... 0.0165

[ask] For B7-H4 antibody 22216 (antibody, human IgG1, kappa, V domains shown, human IgG1/kappa) VH: QVQLQESGPGLVKPSQTLSLTCTVSGGSISDGSYYWSWIRQHPGKGLEWIGNIYYSGSTYYNPSLRSRVTMSVDTSKNQFSLKLSSVTAADTAVYYCARGLSTIDEAFDPWGQGTLVTVSS VL: DIQMTQSPSTLSASVGDRVTITCRASKSISSWLAWYQQKPGKAPKLLIYEASSLHSGVPSRFSGSGSGTEFTLTISSLQPDDFATYYCQQDNSYPYTFGGGTKVEIKR , what is its reported koff?
[reply] 0.000359
